Where these numbers come from: the RNAGym collection of RNA variant scans (doi:10.1073/pnas.2313332121)

B1: TPR t1 (parent)
chain: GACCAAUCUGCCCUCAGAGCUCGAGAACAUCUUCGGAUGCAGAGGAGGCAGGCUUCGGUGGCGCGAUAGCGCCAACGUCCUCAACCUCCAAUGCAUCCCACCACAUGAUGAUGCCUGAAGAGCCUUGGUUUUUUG

Variants of: B1
Test: polymerase ribozyme fitness, log enrichment relative to wild type (log ratio); higher = more active; in vitro selection for triplet polymerase activity
Measure Name: polymerase ribozyme fitness (log ratio)

The recorded polymerase ribozyme fitness (log ratio) for entry G117C A121C equals -3.29

polymerase ribozyme fitness (log ratio) reported for this variant C53U C72U G77U C82G A111C : -1.23

polymerase ribozyme fitness (log ratio) recorded for this variant, C20U G113A , is 1.4

The reported value for C12A A37C A50G C53A in terms of polymerase ribozyme fitness (log ratio) is -0.87

Reported polymerase ribozyme fitness (log ratio) ( G47A C72U ) = -0.456

Value of polymerase ribozyme fitness (log ratio) reported for the variant A43G G69A is -6.04

// polymerase ribozyme fitness (log ratio) lookup, variant = A29G U87A C104G A111U , result: -4.03

Record U9G C124A U131G . Reported polymerase ribozyme fitness (log ratio): 1.79

Reported polymerase ribozyme fitness (log ratio) ( G71C C114A ) = -2.75

Looking up C22U G69U , I found its polymerase ribozyme fitness (log ratio) recorded as -2.26

Looking up A43C C70U C82A A91U G93U U96C C124G , I see its polymerase ribozyme fitness (log ratio) listed as -3.67

polymerase ribozyme fitness (log ratio) recorded for this variant, A29G A74U , is -1.73

variant C89A C114U , polymerase ribozyme fitness (log ratio) observed: -0.329

The value of polymerase ribozyme fitness (log ratio) measured for the variant C8A C12G U54A turned out to be 0.0252

// recorded polymerase ribozyme fitness (log ratio) for C8U A41C C73A G122A : 0.223

Briefly, polymerase ribozyme fitness (log ratio) measured for G110C U129G : -5.19

Reported polymerase ribozyme fitness (log ratio) ( G39A G63A ) = -1

The variant listed as A5G C13A G61A has a reported polymerase ribozyme fitness (log ratio) of -1.98

Summary for this variant, G10A G120U G122A : polymerase ribozyme fitness (log ratio) is 1.51

variant C8U C76G U96A G120U U129C , polymerase ribozyme fitness (log ratio) observed: 0.287

The value of polymerase ribozyme fitness (log ratio) measured for the variant C22A C49U turned out to be -6.04

get_value(item= A121C G128A , readout=polymerase ribozyme fitness (log ratio)) returns 0.0676
